measured target: FASN Keto-reductase Domain (Homo sapiens, UniProt P49327)
Construct: 10 μL hFASN enzyme (full length, 300 ng, purified in house) and 360 μM NADPH; made in house
Sequence (P49327 whole entry, the tested form may be a part): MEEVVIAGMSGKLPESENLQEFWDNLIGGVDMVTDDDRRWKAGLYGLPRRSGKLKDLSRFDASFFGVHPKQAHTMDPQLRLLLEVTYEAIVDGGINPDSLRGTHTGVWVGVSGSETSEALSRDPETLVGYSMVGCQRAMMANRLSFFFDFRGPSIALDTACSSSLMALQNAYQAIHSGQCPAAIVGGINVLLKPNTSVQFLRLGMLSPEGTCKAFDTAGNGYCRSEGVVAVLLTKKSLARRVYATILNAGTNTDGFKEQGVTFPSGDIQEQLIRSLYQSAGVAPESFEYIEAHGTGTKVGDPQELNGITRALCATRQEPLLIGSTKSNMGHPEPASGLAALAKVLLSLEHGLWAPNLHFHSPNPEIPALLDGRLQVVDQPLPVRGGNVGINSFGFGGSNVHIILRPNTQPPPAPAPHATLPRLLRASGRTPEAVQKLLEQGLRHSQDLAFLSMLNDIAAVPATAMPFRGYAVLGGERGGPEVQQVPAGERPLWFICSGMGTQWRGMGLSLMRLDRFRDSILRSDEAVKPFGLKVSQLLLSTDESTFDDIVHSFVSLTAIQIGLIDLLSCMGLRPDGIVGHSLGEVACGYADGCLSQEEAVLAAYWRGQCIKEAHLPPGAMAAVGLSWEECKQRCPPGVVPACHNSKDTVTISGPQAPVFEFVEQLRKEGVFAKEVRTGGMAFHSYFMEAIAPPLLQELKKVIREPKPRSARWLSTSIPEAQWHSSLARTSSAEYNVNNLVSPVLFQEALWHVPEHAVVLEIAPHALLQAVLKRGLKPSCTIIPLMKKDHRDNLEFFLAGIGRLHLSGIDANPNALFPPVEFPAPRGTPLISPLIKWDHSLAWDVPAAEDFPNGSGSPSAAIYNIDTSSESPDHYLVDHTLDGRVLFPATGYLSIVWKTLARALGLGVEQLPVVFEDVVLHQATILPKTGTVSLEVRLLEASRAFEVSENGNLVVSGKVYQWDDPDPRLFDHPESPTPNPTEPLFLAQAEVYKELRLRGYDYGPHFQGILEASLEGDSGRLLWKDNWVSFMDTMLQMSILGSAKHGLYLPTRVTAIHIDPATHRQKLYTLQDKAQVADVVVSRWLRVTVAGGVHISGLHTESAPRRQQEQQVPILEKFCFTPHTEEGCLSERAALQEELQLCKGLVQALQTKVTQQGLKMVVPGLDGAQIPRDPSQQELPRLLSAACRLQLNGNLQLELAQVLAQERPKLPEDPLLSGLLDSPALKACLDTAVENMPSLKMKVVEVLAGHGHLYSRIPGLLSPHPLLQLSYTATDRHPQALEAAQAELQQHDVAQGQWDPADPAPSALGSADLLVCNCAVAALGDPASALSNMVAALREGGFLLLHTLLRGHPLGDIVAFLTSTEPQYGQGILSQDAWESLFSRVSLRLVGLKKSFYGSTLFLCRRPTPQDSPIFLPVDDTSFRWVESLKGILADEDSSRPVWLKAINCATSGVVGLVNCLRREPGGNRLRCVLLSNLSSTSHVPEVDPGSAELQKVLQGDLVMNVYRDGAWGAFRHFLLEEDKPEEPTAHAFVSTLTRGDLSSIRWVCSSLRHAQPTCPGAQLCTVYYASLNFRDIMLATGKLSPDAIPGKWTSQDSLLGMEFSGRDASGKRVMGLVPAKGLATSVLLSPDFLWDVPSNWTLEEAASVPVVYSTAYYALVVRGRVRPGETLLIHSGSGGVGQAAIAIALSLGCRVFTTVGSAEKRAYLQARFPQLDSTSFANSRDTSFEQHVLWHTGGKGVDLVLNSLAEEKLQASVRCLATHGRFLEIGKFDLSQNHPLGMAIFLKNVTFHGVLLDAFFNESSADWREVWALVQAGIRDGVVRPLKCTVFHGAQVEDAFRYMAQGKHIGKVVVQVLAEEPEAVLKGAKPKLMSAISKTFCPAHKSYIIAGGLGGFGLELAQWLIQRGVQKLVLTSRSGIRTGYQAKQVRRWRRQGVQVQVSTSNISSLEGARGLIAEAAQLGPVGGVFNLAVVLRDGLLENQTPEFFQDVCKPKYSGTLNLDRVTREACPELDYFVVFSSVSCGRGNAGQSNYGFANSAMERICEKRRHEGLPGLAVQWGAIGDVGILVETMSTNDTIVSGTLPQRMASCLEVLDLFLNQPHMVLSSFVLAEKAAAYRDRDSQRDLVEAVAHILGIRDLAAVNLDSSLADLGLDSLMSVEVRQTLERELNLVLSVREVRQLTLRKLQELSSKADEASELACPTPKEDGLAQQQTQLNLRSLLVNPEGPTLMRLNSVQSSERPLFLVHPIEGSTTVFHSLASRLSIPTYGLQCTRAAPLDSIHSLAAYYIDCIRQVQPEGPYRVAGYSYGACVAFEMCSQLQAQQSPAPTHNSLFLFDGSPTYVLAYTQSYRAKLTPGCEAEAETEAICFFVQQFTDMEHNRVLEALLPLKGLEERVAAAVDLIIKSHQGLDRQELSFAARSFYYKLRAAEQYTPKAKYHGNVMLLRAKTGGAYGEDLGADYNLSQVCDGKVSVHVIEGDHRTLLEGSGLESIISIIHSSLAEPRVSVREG
assay text: Fatty Acid Synthase Keto-Reductase Domain (FASN KR) Inhibition
Format: biochemical
condition parameters: mean where tested more than once; read-out: FASN K-R Domain pIC50 (converted)
Cut-off 100 nM on IC50: below means 1 (yes), at or above means 0 (no).

line_notation=CCN1CCC(C(=O)Nc2cc(C(=O)N3CCC(c4ccc(-c5cnn(C)c5)cc4)CC3)ccc2C)CC1 label="0 (no)"
line_notation=COc1ccc(C(=O)N2CCC(c3ccc(-c4cnn(C)c4)cc3)CC2)cc1NC(=O)c1ccc(Cl)nc1 label="0 (no)"
line_notation=Cc1ccc(C(=O)N2CCC(c3ccc(-c4cnn(C)c4)cc3)CC2)cc1NC(=O)c1ccc(C(C)C)cc1 label="1 (yes)"
line_notation=Cc1ccc(C(=O)N2CCC(c3ccc(-c4cnn(C)c4)cc3)CC2)cc1NC(=O)C1CCN(Cc2ccccc2)CC1 label="1 (yes)"
line_notation=Cc1ccc(C(=O)N2CCC(c3ccc(-c4cn[nH]c4)cc3)CC2)cc1NC(=O)c1ccc(NC(C)C)nc1 label="1 (yes)"
line_notation=Cc1ccc(C(=O)N2CCC(c3ccc(-c4cnn(C)c4)cc3)CC2)cc1NC(=O)C1CCCC1 label="0 (no)"

* * *

Measured IC50 values are reported for all entries that follow.
System: A2780 ovarian cells
assay text: A2780 Ovarian Cell Proliferation Assay in Lipid Reduced Medium, without Palmitate
Assay type: cell-based
condition parameters: Homo sapiens, A2780; lipid reduced medium, without palmitate, 96 h, MTT; read-out: Proliferation A2780 w/o Palmitate pIC50 (converted)
observed property: IC50 (nM)

line_notation=Cc1ccc(C(=O)N2CCC(c3ccc(-c4cnn(C)c4)cc3)CC2)cc1NC(=O)C1CN(C2CCCCC2)C1 observed_property=IC50 unit=nM observed_result=141
line_notation=Cc1ccc(C(=O)N2CC(c3ccc(-c4ccncc4)cc3)C2)cc1NC(=O)c1ccc(NC(C)C)nc1 observed_property=IC50 unit=nM observed_result=25.1
line_notation=CC(C)Nc1ccc(C(=O)Nc2cc(C(=O)N3CC(c4ccc(-c5ccncc5)cc4)C3)ccc2Cl)cn1 observed_property=IC50 unit=nM observed_result=61.7

* * *

measured target: hFASN enzyme (full length) (Homo sapiens, UniProt P49327)
pIC50: −log10 of the molar value.
observed property: pIC50

molecule=Cc1ccc(C(=O)N2CC(c3ccc(-c4cnn(C)c4)cc3)C2)cc1NC(=O)c1ccc(N2CCN(C)CC2)nc1 observed_property=pIC50 qualifier_operator== observed_result=7.66
molecule=Cc1ccc(C(=O)N2CC(c3ccc(-c4ccsc4)cc3)C2)cc1NC(=O)c1ccc(NC(C)C)nc1 observed_property=pIC50 qualifier_operator== observed_result=7.49
molecule=Cc1ccc(C(=O)N2CC(c3ccc(-c4cnn(C)c4)cc3)C2)cc1NC(=O)C1CCCC1 observed_property=pIC50 qualifier_operator=< observed_result=5.00
molecule=Cc1ccc(C(=O)N2CCC(c3ccc(-c4cnn(C)c4)cc3)CC2)cc1NC(=O)C1CCN(C2CCC2)CC1 observed_property=pIC50 qualifier_operator== observed_result=7.50
molecule=Cc1ccc(C(=O)N2CCC(c3ccc(-c4cnn(C)c4C)cc3)CC2)cc1NC(=O)c1ccc(NC(C)C)nc1 observed_property=pIC50 qualifier_operator== observed_result=7.27
molecule=Cc1ccc(C(=O)N2CCC(c3ccc(-n4ccnc4)cc3)CC2)cc1NC(=O)c1ccc(NC(C)C)nc1 observed_property=pIC50 qualifier_operator== observed_result=7.64
molecule=Cc1ccc(C(=O)N2CCC(c3ccc(-c4cnn(C)c4)cc3)CC2)cc1NC(=O)[C@H]1CCCN1 observed_property=pIC50 qualifier_operator== observed_result=6.31
molecule=CC(C)Nc1ccc(C(=O)Nc2cc(C(=O)N3CC(c4ccc(-c5ccnn5C)cc4)C3)ccc2Cl)cn1 observed_property=pIC50 qualifier_operator== observed_result=7.44
molecule=CC(C)Nc1ccc(C(=O)Nc2cc(C(=O)N3CCC(c4ccc(-c5ccnc6ccccc56)cc4)CC3)ccc2Cl)cn1 observed_property=pIC50 qualifier_operator== observed_result=7.50
molecule=Cc1ccc(C(=O)Nc2cc(C(=O)N3CCC(c4ccc(-c5cnn(C)c5)cc4)CC3)ccc2C)s1 observed_property=pIC50 qualifier_operator== observed_result=7.37
molecule=Cn1cc(-c2ccc(C3CCN(C(=O)c4ccc(OCc5ccccc5)c(NC(=O)c5ccc(Cl)nc5)c4)CC3)cc2)cn1 observed_property=pIC50 qualifier_operator== observed_result=6.58
molecule="CCCCCCN1CCC(C(=O)Nc2cc(C(=O)N3CCC(c4ccc(-c5cnn(C)c5)cc4)CC3)ccc2C)C1 (stereo not drawn)" observed_property=pIC50 qualifier_operator== observed_result=6.84
molecule=CCC(CC)C(=O)Nc1cc(C(=O)N2CC(c3ccc(-c4cnn(C)c4)cc3)C2)ccc1C observed_property=pIC50 qualifier_operator== observed_result=7.52
molecule=CN(c1ccc(C(=O)N2CCC(c3ccc(-c4cnn(C)c4)cc3)CC2)cc1NC(=O)C1CC1)C1CC1 observed_property=pIC50 qualifier_operator== observed_result=6.06
molecule=Cc1ccc(C(=O)N2CCC(c3ccc(-c4cnn(C)c4)cc3)CC2)cc1NC(=O)c1sccc1C observed_property=pIC50 qualifier_operator== observed_result=7.24

All values here come from patent US9562035B2.
